Give IC50 for every item shown.
# MEASURED ON: functional uptake of norepinephrine (NE) into synaptosomes prepared from rat hypothalamus (Rattus norvegicus, UniProt Q63380)
# Construct: into synaptosomes prepared from rat whole brain, hypothalamus, or corpora striata, respectively; from tissue; host or cells: rat hypothalamus synaptosomes
# Sequence (Q63380 1-617): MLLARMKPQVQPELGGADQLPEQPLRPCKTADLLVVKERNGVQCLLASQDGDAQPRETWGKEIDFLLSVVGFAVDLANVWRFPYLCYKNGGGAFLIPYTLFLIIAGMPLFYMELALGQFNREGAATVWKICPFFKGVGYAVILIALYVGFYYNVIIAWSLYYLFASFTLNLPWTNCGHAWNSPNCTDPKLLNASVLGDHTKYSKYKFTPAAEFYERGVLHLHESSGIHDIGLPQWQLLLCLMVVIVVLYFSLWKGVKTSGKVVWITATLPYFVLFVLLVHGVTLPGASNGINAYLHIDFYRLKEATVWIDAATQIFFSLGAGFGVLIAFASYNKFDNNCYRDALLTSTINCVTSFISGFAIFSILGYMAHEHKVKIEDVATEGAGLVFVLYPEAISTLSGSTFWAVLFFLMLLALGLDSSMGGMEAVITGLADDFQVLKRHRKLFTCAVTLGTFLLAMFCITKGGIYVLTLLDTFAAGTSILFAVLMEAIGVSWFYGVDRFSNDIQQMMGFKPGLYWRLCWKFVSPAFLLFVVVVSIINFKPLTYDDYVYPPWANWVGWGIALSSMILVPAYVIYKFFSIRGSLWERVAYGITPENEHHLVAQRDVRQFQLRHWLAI
# PROTOCOL NOTES: Functional uptake of norepinephrine (NE) into synaptosomes
# Format: biochemical
# CONDITION DETAILS: 10 concentrations in duplicate, read-out: IC50 Values (nM) for 1-OH Metabolites of DMS in Functional Uptake Assays: NE
Answer with the value and then the unit.

response.value for CN[C@H](C[C@@H](C)CO)C1(c2ccc(Cl)cc2)CCC1 [(2R,4R)-1-OH-DMS] (field: IC50) = 2.2 nM

response.value for CN[C@@H](C[C@H](C)CO)C1(c2ccc(Cl)cc2)CCC1 [(2S,4S)-1-OH-DMS] (field: IC50) = 250 nM

response.value for CN[C@@H](C[C@@H](C)CO)C1(c2ccc(Cl)cc2)CCC1 [(2R,4S)-1-OH-DMS] (field: IC50) = 74 nM

response.value for CN[C@H](C[C@H](C)CO)C1(c2ccc(Cl)cc2)CCC1 [(2S,4R)-1-OH-DMS] (field: IC50) = 9.3 nM

---

# MEASURED ON: functional uptake of dopamine (DA) into synaptosomes prepared from rat corpora striata (Rattus norvegicus, UniProt P23977)
# Construct: into synaptosomes prepared from rat whole brain, hypothalamus, or corpora striata, respectively; from tissue; host or cells: rat corpora striata synaptosomes
# Sequence (P23977 whole entry): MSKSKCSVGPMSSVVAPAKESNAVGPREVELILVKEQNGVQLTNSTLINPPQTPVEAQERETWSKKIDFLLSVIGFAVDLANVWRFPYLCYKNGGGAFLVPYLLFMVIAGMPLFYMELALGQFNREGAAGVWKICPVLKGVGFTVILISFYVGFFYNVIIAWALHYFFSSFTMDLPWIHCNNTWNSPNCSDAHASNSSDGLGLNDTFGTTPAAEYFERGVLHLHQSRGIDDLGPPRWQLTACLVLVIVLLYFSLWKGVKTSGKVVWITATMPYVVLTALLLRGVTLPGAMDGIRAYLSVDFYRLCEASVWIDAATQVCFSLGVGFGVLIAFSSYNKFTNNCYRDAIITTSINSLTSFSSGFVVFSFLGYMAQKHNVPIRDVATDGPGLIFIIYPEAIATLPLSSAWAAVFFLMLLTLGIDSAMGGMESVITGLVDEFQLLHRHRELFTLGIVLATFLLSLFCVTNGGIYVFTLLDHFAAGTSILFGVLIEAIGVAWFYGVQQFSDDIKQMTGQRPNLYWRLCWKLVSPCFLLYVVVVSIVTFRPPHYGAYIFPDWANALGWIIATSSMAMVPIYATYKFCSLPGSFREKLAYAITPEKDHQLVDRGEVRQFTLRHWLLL
# PROTOCOL NOTES: Functional uptake of dopamine (DA) into synaptosomes
# Assay type: biochemical
# CONDITION DETAILS: 10 concentrations in duplicate, read-out: IC50 Values (nM) for 1-OH Metabolites of DDMS in Functional Uptake Assays: DA
Give IC50 for every item shown.
Answer with the value and then the unit.

response.value for C[C@H](CO)C[C@@H](N)C1(c2ccc(Cl)cc2)CCC1 (field: IC50) = 37 nM

response.value for C[C@H](CO)C[C@H](N)C1(c2ccc(Cl)cc2)CCC1 (field: IC50) = 33 nM

response.value for C[C@@H](CO)C[C@@H](N)C1(c2ccc(Cl)cc2)CCC1 (field: IC50) = 27 nM

response.value for C[C@@H](CO)C[C@H](N)C1(c2ccc(Cl)cc2)CCC1 (field: IC50) = 110 nM

---

Give IC50 for every item shown.
# MEASURED ON: functional uptake of norepinephrine (NE) into synaptosomes prepared from rat hypothalamus (Rattus norvegicus, UniProt Q63380)
# Construct: into synaptosomes prepared from rat whole brain, hypothalamus, or corpora striata, respectively; from tissue; host or cells: rat hypothalamus synaptosomes
# PROTOCOL NOTES: Functional uptake of norepinephrine (NE) into synaptosomes
# Assay type: biochemical
# CONDITION DETAILS: 10 concentrations in duplicate, read-out: IC50 Values (nM) for 1-OH Metabolites of DDMS in Functional Uptake Assays: NE
// note: answer is a bare numeric in nM

response.value for C[C@@H](CO)C[C@H](N)C1(c2ccc(Cl)cc2)CCC1 (field: IC50) = 71

response.value for C[C@H](CO)C[C@@H](N)C1(c2ccc(Cl)cc2)CCC1 (field: IC50) = 11

response.value for C[C@H](CO)C[C@H](N)C1(c2ccc(Cl)cc2)CCC1 (field: IC50) = 150

response.value for C[C@@H](CO)C[C@@H](N)C1(c2ccc(Cl)cc2)CCC1 (field: IC50) = 4.7
